Measured inhibition at 50 µM by item
target: murine ATGL (Mus musculus); construct: made in house; host or cells: Expi cells (lysate); experiment: TG hydrolase activity, Expi lysates expressing mouse ATGL + CGI-58, radiolabelled triolein; assay type: biochemical; details: 50 μM compound; Example 237; read-out: Inhibition of murine ATGL at 50 μM − mean [%]
Sequence (Q8BJ56 whole entry): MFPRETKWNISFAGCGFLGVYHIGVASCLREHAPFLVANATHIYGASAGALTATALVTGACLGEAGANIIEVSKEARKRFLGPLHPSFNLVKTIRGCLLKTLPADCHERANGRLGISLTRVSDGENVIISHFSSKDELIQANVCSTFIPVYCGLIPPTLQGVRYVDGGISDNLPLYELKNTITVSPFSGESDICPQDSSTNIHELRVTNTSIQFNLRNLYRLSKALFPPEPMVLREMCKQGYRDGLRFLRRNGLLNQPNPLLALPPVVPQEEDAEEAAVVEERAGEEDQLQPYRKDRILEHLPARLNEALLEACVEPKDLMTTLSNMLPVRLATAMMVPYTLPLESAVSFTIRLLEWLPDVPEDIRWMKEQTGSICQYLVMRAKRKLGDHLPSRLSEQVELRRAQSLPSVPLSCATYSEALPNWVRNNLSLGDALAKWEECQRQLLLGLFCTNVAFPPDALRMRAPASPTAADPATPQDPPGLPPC

molecule | units.text | inhibition at 50 µM
CC(C)OC(=O)c1cccc(-c2ccc(OC(F)(F)F)cc2)n1 | % | 22.8
CCOc1ccc(-c2nc(C(=O)O[C@H]3CCC[C@H]3C)cs2)cc1 | % | 0
CCOc1ccc(-c2nc(C(=O)OC3CCCC3)cs2)cc1 | % | 0
CCOc1ccc(-c2cccc(C(=O)OC(C)CC)n2)cc1 (stereo not shown) | % | 0
CCCC(C)OC(=O)c1csc(-c2ccc(OCC)cc2)n1 (stereo not shown) | % | 7.4
CCCCCCOc1ccc(-c2cc(OC)cc(C(=O)OC(C)C)n2)cc1 | % | 0.1
C=CCOC(=O)c1cccc(-c2ccc(OCC)cc2)n1 | % | 18.6
